Tested on: TIE2
Construct: gene TEK
Settings: concentration: 1 μM, replicates: in singlicate; n = 1;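 also: KINOMEscan kinase panel screen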
What %Inh was measured for each of the following?

**Q:** So what's the measured %Inh for this one? Cc1nnc(-c2ccc3ncn(-c4ccc(S(C)=O)cc4)c3c2)o1 (stereo not drawn)
**A:** 11%

**Q:** Note, next up: CN(C)c1cc(-c2ccc3c(N)n[nH]c3c2)nc(N)n1
**A:** 0%

**Q:** Cool, now Cc1nn2c(=O)cc(N3CCOCC3)nc2n1Cc1cccc(Cl)c1Cl
**A:** 0%

====

Please go through the items and note down their %Inh.
System: NEK10
Details: concentration: 1 μM, replicates: in singlicate; n = 1
// return numeric value only (unit: %, not printed)

**Q:** Returns the measured %Inh for the input compound. Input: CC(C)(C)c1ccc(C(=O)Nc2cn3cc(-c4ccccc4)ccc3n2)cc1
**A:** 0

**Q:** Entry to check: OCCCNc1nccc(-c2c(-c3cccc(C(F)(F)F)c3)nn3cc(C(F)(F)F)ccc23)n1
**A:** 0

**Q:** How about this compound: Cl.NS(=O)(=O)c1cccc(Nc2cc(-c3ccc(F)cc3)n[nH]2)c1
**A:** 8

**Q:** // next record Cn1c(=O)c(F)c(Nc2ccc(I)cc2F)c2c(=O)n(OC[C@H](O)CO)cnc21
**A:** 0

**Q:** And then CCc1ccc(-c2ccc3c(c2)-c2nn(C)cc2S(=O)(=O)N3C)cc1 , what is it?
**A:** 0

====

Tested on: IKK-epsilon
Construct: gene IKBKE
Conditions: concentration: 1 μM, replicates: in singlicate; n = 1
Measured parameter: %Inh (%)
Write the value in % as a bare number.

**Q:** Lab note: need %Inh with IKK-epsilon for entry C[C@@H]1CC[C@H](C(=O)NC2CCCCC2)CN1c1cc(-c2ccc3c(N)n[nH]c3c2)nc(N)n1 , please look it up.
**A:** 25

**Q:** Another molecule to check: COc1cc2ncn(-c3cc(OCc4ccncc4Br)c(C(N)=O)s3)c2cc1OC
**A:** 0

**Q:** Okay, and COc1cccc(C2=C(N(C)c3ccccc3)C(=O)NC2=O)c1 ?
**A:** 3

====

Tested on: RPS6KA4(Kin.Dom.2-C-terminal)
Details: concentration: 1 μM, replicates: in singlicate; n = 1
What %Inh was measured for each of the following?

**Q:** Give the measured %Inh of Nc1n[nH]c2nnc(-c3ccccc3)c(-c3ccccc3)c12 .
**A:** 0%

**Q:** Please do the same for COc1cc(Nc2nccc(N3CCC(NC(=O)C4COc5ccccc5O4)C3)n2)cc(OC)c1OC (stereo not drawn) as well.
**A:** 0%

**Q:** Please give the result for Cl.c1ccc(Cn2cnc3cc(Nc4ncnc5ccccc45)ccc32)cc1 too.
**A:** 0%

**Q:** Also Cc1ccc(Oc2ccc(Nc3ncnc4cc[nH]c34)cc2C)cn1 , if possible.
**A:** 1%

**Q:** // query: Nc1ncnc2c1ncn2-c1cccc2ccccc12
**A:** 0%

**Q:** // same read-out, input: COc1cc2ncn(-c3cc(OCc4ccc(S(C)(=O)=O)cc4)c(C(N)=O)s3)c2cc1OC
**A:** 38%

====

So I've got a bunch of compounds here, and I need their %Inh values.
Test system: MET
Conditions: concentration: 1 μM, replicates: in singlicate; n = 1
Please reply with the bare figure in % and do not write the unit itself.

**Q:** Quick one: %Inh of OCCCNc1nccc(-c2c(-c3cccc(C(F)(F)F)c3)nn3cc(C(F)(F)F)ccc23)n1 ?
**A:** 0

**Q:** Would you mind doing O=c1cc(N2CCOCC2)nc2n(Cc3ccc(F)c(Cl)c3)ccn12 as well?
**A:** 0

**Q:** Would you kindly repeat that for CCC(=O)c1c(-c2ccccc2)c2cc(Cl)ccc2c(=O)n1Cc1cc(S(C)(=O)=O)n(CC(F)F)n1 ?
**A:** 6

**Q:** Would you mind doing COc1cc(OC)cc(-c2cc3cnc(N)nc3nc2NC(=O)NC(C)(C)C)c1 as well?
**A:** 0

**Q:** Same lookup for COc1cc2nccc(Nc3cccc(Oc4ccccc4)c3)c2cc1OC.Cl , please.
**A:** 0

**Q:** Also COc1cccc(C2=C(N(C)c3ccccc3)C(=O)NC2=O)c1 , if possible.
**A:** 0

**Q:** Further, for COc1cc2ncn(-c3cc(OCc4ccncc4)c(C(N)=O)s3)c2cc1OC ?
**A:** 0

**Q:** And for Fc1cccc(CSc2nnc(-c3ccc4c(c3)CCO4)o2)c1 ?
**A:** 10

**Q:** // query: Nc1ncnc2c1ncn2-c1cccc(F)c1
**A:** 18

**Q:** Repeat for the following compound: CCc1nc(-c2cccc(C)c2)c(-c2ccncc2)s1
**A:** 4

**Q:** Next compound up: Cc1nnc(-c2ccc(C)c(-c3ccc(C(=O)O)cc3)c2)o1
**A:** 0

**Q:** // next record COc1ccc(CNC(=O)NC2CCN(c3ccnc(Nc4ccc(F)cc4)n3)C2)cc1 (stereo not shown)
**A:** 0

**Q:** Please answer likewise for CCC(=O)c1c(-c2ccccc2)c2cc(Cl)ccc2c(=O)n1Cc1cc(S(C)(=O)=O)n(CC(N)=O)n1
**A:** 0

**Q:** Can you handle Cc1cccc(-c2cc(-c3c[nH]nc3-c3ccccn3)ccn2)c1 next?
**A:** 0

**Q:** Now consider CCC(=O)c1c(-c2ccccc2)c2cc(Cl)ccc2c(=O)n1Cc1cc(C(=O)NC2CC2)n(C)n1 .
**A:** 0

**Q:** Same lookup for Cc1nnc(-c2ccc3ncn(-c4ccc(S(C)=O)cc4)c3c2)o1 (stereo not shown) , please.
**A:** 0

**Q:** Another compound to check: Nc1n[nH]c2ncc(-c3ccccc3)cc12
**A:** 0

**Q:** Now give it for CN(C)c1cc(-c2ccc3c(N)n[nH]c3c2)nc(N)n1 too.
**A:** 0

**Q:** What do you get for COC(=O)c1c(-c2ccccc2)c2cc(Br)ccc2c(=O)n1Cc1ccc(S(C)(=O)=O)cc1 ?
**A:** 2

**Q:** Also CCCC(=O)Nc1n[nH]c2ncc(-c3cccc4ccccc34)cc12 , if possible.
**A:** 0

**Q:** Proceed to Cc1cc(Nc2nc(-c3cccc(C)n3)nc3ccccc23)ccn1
**A:** 32

**Q:** Then what about the compound CN1C(=O)C(Nc2cc(Cl)c(O)c(Cl)c2)=C(c2ccc(Cl)cc2)C1=O ?
**A:** 0

**Q:** Also Cl.NS(=O)(=O)c1cccc(Nc2cc(-c3ccc(F)cc3)n[nH]2)c1 , if possible.
**A:** 0

**Q:** Moving on to the next compound: COc1cccc(-n2cnc3c(N)ncnc32)c1
**A:** 0

**Q:** Would you mind doing COc1cc2nccc(Nc3ccc(OCc4ccc(NC(C)=O)cc4)cc3)c2cc1OC.Cl as well?
**A:** 0
